Please respond with reported Ki for every item in the list.
Protein target, amino acids: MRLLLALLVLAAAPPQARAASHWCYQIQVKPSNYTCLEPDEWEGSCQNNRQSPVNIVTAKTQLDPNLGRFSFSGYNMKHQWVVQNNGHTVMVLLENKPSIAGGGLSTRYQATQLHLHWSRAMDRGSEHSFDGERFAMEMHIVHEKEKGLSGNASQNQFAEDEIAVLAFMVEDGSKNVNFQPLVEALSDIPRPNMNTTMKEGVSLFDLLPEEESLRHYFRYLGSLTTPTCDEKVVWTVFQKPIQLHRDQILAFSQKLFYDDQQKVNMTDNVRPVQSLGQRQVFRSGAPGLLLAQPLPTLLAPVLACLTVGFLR
Answer with a number only, understood to be in nM.

**Q:** Quick check: Ki of NCCCC(=O)Nc1c(S(N)(=O)=O)cc(S(N)(=O)=O)c(Cl)c1Cl ?
**A:** 50

**Q:** Quick check: Ki of NCCCC(=O)Nc1nccc(Nc2ccc(S(N)(=O)=O)cc2)n1 ?
**A:** 50

**Q:** Quick check: Ki of NS(=O)(=O)c1ccc(CCO)cc1 ?
**A:** 5

**Q:** Quick check: Ki of NCCCC(=O)Nc1ccc(S(N)(=O)=O)cc1 ?
**A:** 164

**Q:** Quick check: Ki of NCCCC(=O)Nc1ccc(S(N)(=O)=O)cc1Cl ?
**A:** 63

**Q:** Quick check: Ki of NCCCC(=O)Nc1ccc(S(=O)(=O)Nc2cccc(S(N)(=O)=O)c2)cc1 ?
**A:** 67
